- Tested on: S. typhimurium TA102
- experiment_notes: Bacterial mutagenicity, plate incorporation assay, TA102
- assay_setup: 40 μg/plate; mean ± SD; square brackets: toxicity becoming apparent
Threshold check on reversion colonies, TA102: strictly below 400 is Yes; on or above 400 is No.

Record CN1CCN(c2ccc3nc(-c4ccc5nc(-c6ccc(O)cc6)[nH]c5c4)[nH]c3c2)CC1 [Pibenzimol, reference compound] : is its reversion colonies, TA102 strictly below 400?
Yes

Record `CN1CCN(c2ccc3nc(-c4ccc5nc(CCCCCCc6ccc(N(CCCl)CCCl)cc6)[nH]c5c4)[nH]c3c2)CC1` : is its reversion colonies, TA102 strictly below 400?
Yes

Record `CN1CCN(c2ccc3nc(-c4ccc5nc(-c6ccc(N(C)CCCl)cc6)[nH]c5c4)[nH]c3c2)CC1` : is its reversion colonies, TA102 strictly below 400?
No

Record `CN1CCN(c2ccc3nc(-c4ccc5nc(CCCc6ccc(N(CCCl)CCCl)cc6)[nH]c5c4)[nH]c3c2)CC1` : is its reversion colonies, TA102 strictly below 400?
Yes

Record `CN1CCN(c2ccc3nc(-c4ccc5nc(Cc6ccc(N(CCCl)CCCl)cc6)[nH]c5c4)[nH]c3c2)CC1` : is its reversion colonies, TA102 strictly below 400?
Yes

Record `CN1CCN(c2ccc3nc(-c4ccc5nc(CCc6ccc(N(CCCl)CCCl)cc6)[nH]c5c4)[nH]c3c2)CC1` : is its reversion colonies, TA102 strictly below 400?
No

###

- System: S. typhimurium TA98
- experiment_notes: Bacterial mutagenicity, plate incorporation assay, TA98
- assay_setup: 10 μg/plate; mean ± SD
Give measured reversion colonies, TA98 for each item. Keep answers brief.
Give the value as a plain number.

Could you tell me which reversion colonies, TA98 is on file for `CN1CCN(c2ccc3nc(-c4ccc5nc(Cc6ccc(N(CCCl)CCCl)cc6)[nH]c5c4)[nH]c3c2)CC1` ?
83

Could you tell me which reversion colonies, TA98 is on file for CN1CCN(c2ccc3nc(-c4ccc5nc(-c6ccc(O)cc6)[nH]c5c4)[nH]c3c2)CC1 [Pibenzimol, reference compound] ?
64

Could you tell me which reversion colonies, TA98 is on file for `CN1CCN(c2ccc3nc(-c4ccc5nc(CCCCCCc6ccc(N(CCCl)CCCl)cc6)[nH]c5c4)[nH]c3c2)CC1` ?
69

Could you tell me which reversion colonies, TA98 is on file for `CN1CCN(c2ccc3nc(-c4ccc5nc(-c6ccc(N(CCCl)CCCl)cc6)[nH]c5c4)[nH]c3c2)CC1` ?
68

Could you tell me which reversion colonies, TA98 is on file for `CN1CCN(c2ccc3nc(-c4ccc5nc(CCc6ccc(N(CCCl)CCCl)cc6)[nH]c5c4)[nH]c3c2)CC1` ?
74

Could you tell me which reversion colonies, TA98 is on file for `CN1CCN(c2ccc3nc(-c4ccc5nc(CCCc6ccc(N(CCCl)CCCl)cc6)[nH]c5c4)[nH]c3c2)CC1` ?
62

Could you tell me which reversion colonies, TA98 is on file for `CN1CCN(c2ccc3nc(-c4ccc5nc(-c6ccc(N(C)CCCl)cc6)[nH]c5c4)[nH]c3c2)CC1` ?
62

###

- Test system: S. typhimurium TA100
- experiment_notes: Bacterial mutagenicity, plate incorporation assay, TA100
- assay_setup: 40 μg/plate; mean ± SD
Give measured reversion colonies, TA100 for each item. Keep answers brief.

Could you tell me which reversion colonies, TA100 is on file for CN1CCN(c2ccc3nc(-c4ccc5nc(CCc6ccc(N(CCCl)CCCl)cc6)[nH]c5c4)[nH]c3c2)CC1 [Compound 4] ?
237 ± 29

Could you tell me which reversion colonies, TA100 is on file for CN1CCN(c2ccc3nc(-c4ccc5nc(-c6ccc(O)cc6)[nH]c5c4)[nH]c3c2)CC1 [Pibenzimol, reference compound] ?
168 ± 13

Could you tell me which reversion colonies, TA100 is on file for CN1CCN(c2ccc3nc(-c4ccc5nc(CCCCCCc6ccc(N(CCCl)CCCl)cc6)[nH]c5c4)[nH]c3c2)CC1 [Compound 6] ?
144 ± 10

Could you tell me which reversion colonies, TA100 is on file for CN1CCN(c2ccc3nc(-c4ccc5nc(-c6ccc(N(CCCl)CCCl)cc6)[nH]c5c4)[nH]c3c2)CC1 [Compound 2] ?
210 ± 20

Could you tell me which reversion colonies, TA100 is on file for CN1CCN(c2ccc3nc(-c4ccc5nc(-c6ccc(N(C)CCCl)cc6)[nH]c5c4)[nH]c3c2)CC1 [Compound 1] ?
226 ± 23
